# System: K-562 leukemia
# assay protocol: NCI tumour cell line growth inhibition, 48 h; in the data active means GI50 below about 0.43 µM; inactive means the rest
Log the outcome using a class from active, inactive

See these solved cases before continuing.
INSERT INTO results (compound, target, answer_label) VALUES
  ('COc1ccc2c3/c(=C\c4ccc(N(C)C)cc4)c4ccccc4n3[n+](C)c2c1', 'K-562 leukemia', 'active'),
  ('COc1ccc2c(c1)/C(=N/OC(C)=O)c1c-2c(OC)nc2ccccc12', 'K-562 leukemia', 'inactive'),
  ('COc1ccc2c(c1)C(=O)c1c-2n(CCCN(C)C)c(=O)c2cc([N+](=O)[O-])ccc12', 'K-562 leukemia', 'active'),
  ('CCC(=O)Nc1nnc(Cc2ccc(OC)c(OC)c2)s1', 'K-562 leukemia', 'inactive'),
  ('CCOC(=O)/C=C1/SC(=Nc2ccc(C#N)cc2)N(Cc2ccco2)C1=O', 'K-562 leukemia', 'inactive'),
  ('COc1ccc2nc3ccccc3c(NCCNCC(C)O)c2c1 (centres undefined)', 'K-562 leukemia', 'active');

Query: Hey, what did the test say about `CC(=O)c1c(C)c2cnc(Nc3ccc(N4CCNCC4)cn3)nc2n(C2CCCC2)c1=O` ?
Response: inactive

###

# Test system: SK-OV-3 ovarian
# assay protocol: NCI tumour cell line growth inhibition, 48 h; in the data active = GI50 below about 0.43 µM; inactive = the rest
Log the outcome using a class from Yes (active), No (inactive)

INSERT INTO results (molecule, target, answer_label) VALUES
  ('CCOC(=O)/C=C1/SC(=Nc2ccc(C#N)cc2)N(Cc2ccco2)C1=O', 'SK-OV-3 ovarian', 'No'),
  ('O=C1NC(=NCCc2ccc(Br)cc2)S/C1=C\c1ccc2ncccc2c1', 'SK-OV-3 ovarian', 'No'),
  ('COc1cc(C2NC(=O)C(C#N)=C(Nc3cccc(C)c3)S2)ccc1O (stereo not drawn)', 'SK-OV-3 ovarian', 'No');

Query: Hey, what did the test say about `COC(=O)c1cc(-c2ccc(S(C)(=O)=O)cc2)[nH]c1N/N=C/c1c(Cl)cccc1Cl` ?
Response: No

Query: Hey, what did the test say about `Cc1c(C(N)=O)sc2nc(C)n(/N=c3\scc(-c4ccccc4)n3Cc3ccccc3)c(=O)c12` ?
Response: No

Query: Hey, what did the test say about `Oc1[nH]c2ccccc2c1C=Nc1ccc(-n2cncn2)cc1` ?
Response: No

Query: Hey, what did the test say about `CC(=O)c1c(C)c2cnc(Nc3ccc(N4CCNCC4)cn3)nc2n(C2CCCC2)c1=O` ?
Response: No

###

# Test system: DU-145 prostate
# assay protocol: NCI tumour cell line growth inhibition, 48 h
quantity measured: TGI

INSERT INTO results (compound, quantity_measured, value_measured) VALUES
  ('O=C(CC(C(=O)c1cccs1)c1ccsc1)c1ccc(Cl)s1 (stereo not drawn)', 'TGI', '> 100 µM');

Entry `CCCN(CCC)C(=O)c1c(N2CCN(C)CC2)c2cccnc2n2c(C)cnc12` ; TGI = > 100 µM

Entry `CSc1nc(SC)c2c(C)cn(COCCOC(=O)c3ccccc3)c2n1` ; TGI = > 100 µM

###

Reported TGI values follow for various compounds
# System: UO-31 renal
# assay protocol: NCI tumour cell line growth inhibition, 48 h

Some entries whose results are on file:
INSERT INTO assay_data (compound, value_measured) VALUES
  ('Cc1cc(O)c2c(c1)C(C1c3cccc(O)c3C(=O)c3c(O)cc(C)cc31)c1cccc(O)c1C2=O (stereo unspecified)', '1780 nM'),
  ('C=CCSC(C)=O', '> 100000 nM');

Entry `CCCCCCCCCCCC[N+]12CC[N+](C)(CC1)CC2` ; TGI = > 100000 nM

Entry COc1ccc2nc3ccccc3c(NCCNCC(C)O)c2c1 (stereo unspecified) ; TGI = 2390 nM

Entry `Cn1cc2c3ccccc3nc-2c2ccccc21` ; TGI = 2920 nM

Entry Cc1ccc(S(=O)(=O)C2CC2(Cl)Cl)cc1 (stereo unspecified) ; TGI = > 100000 nM

###

# Test system: HCT-15 colon
# assay protocol: NCI tumour cell line growth inhibition, 48 h
Reported GI50 values follow for various compounds

Some entries whose results are on file:
INSERT INTO results (compound, value_measured) VALUES
  ('COc1cc(C2NC(=O)C(C#N)=C(Nc3cccc(C)c3)S2)ccc1O (stereo not given)', '> 100 µM'),
  ('S=C(SSC(=S)N1CCCCC1)N1CCCCC1', '16.5 µM'),
  ('CSc1nc2c(c(=O)n1C)C(c1ccccc1)C1=C(N2)/C(=C/c2ccccc2)CCC1 (stereo not given)', '4.1 µM');

Entry `COc1ccc2c(c1)/C(=N/OC(C)=O)c1c-2c(OC)nc2ccccc12` ; GI50 = > 100 µM

Entry `O=C1Cc2cc(CCN3CCNCC3)c(Cl)cc2N1` ; GI50 = 6.23 µM

###

# Tested on: HL-60(TB) leukemia
# assay protocol: NCI tumour cell line growth inhibition, 48 h
quantity measured: TGI

Some entries whose results are on file:
INSERT INTO measurements (compound, value_measured) VALUES
  ('O=S(=O)(c1ccccc1)c1ccc(-c2nc(-c3ccc4c(c3)Sc3ccccc3S4)cs2)cc1', '> 100 µM'),
  ('CC(C)(C)OC(=O)N1N=CCC1c1ccccc1 (stereo not drawn)', '> 100 µM');

Now consider the entry below.
Entry Nc1ccn(C2CCC(COP(=O)(O)OCC(O)COP(=O)(O)OCC3OC(n4cc(F)c(=O)[nH]c4=O)CC3O)O2)c(=O)n1 (stereo not drawn) ; TGI = > 100 µM

###

# Tested on: NCI-H460 lung
# assay protocol: NCI tumour cell line growth inhibition, 48 h
Reported TGI values follow for various molecules

Some entries whose results are on file:
INSERT INTO assay_data (molecule, quantity_measured, value_measured) VALUES
  ('O=C(NC1C/C(=N/O)c2c(Br)sc(Br)c21)C(F)(F)F (stereo unspecified)', 'TGI', '97.2 µM'),
  ('CCN(C(=O)N[C@H](C(=O)N[C@@H](CSC)C(=O)N[C@@H](C)C(=O)OC)C(C)C)c1ccccc1', 'TGI', '32.5 µM'),
  ('O=C(O)c1nn(-c2ccccc2)nc1-c1nn(-c2ccccc2)nc1C(=O)O', 'TGI', '> 100 µM'),
  ('CSc1nnc(C(C#N)C#N)nn1', 'TGI', '> 100 µM'),
  ('O=c1[nH]c2ccc(CC(=S)N3CCOCC3)cc2o1', 'TGI', '> 100 µM');

Entry CC1=C(C(=O)Nc2ccc(Cl)c(Cl)c2)C(c2cccc(Cl)c2)NC(=S)N1 (stereo unspecified) ; TGI = > 50 µM

Entry `COc1ccc([I+]c2ccc(OC)cc2)cc1` ; TGI = > 100 µM

Entry `COc1cc(-c2ccc[nH]2)[nH]c1/C=C1\N=C(C)C(CC(=O)OCC(C)(C)C)=C1C` ; TGI = 1.35 µM

Entry `Cc1cc(C)n(-c2nc(C)c(CCO)c(=O)[nH]2)n1` ; TGI = > 100 µM

Entry `O=C1CN(c2cccc(C(F)(F)F)c2)C(=O)CN1CCN1CC(=O)N(c2cccc(C(F)(F)F)c2)CC1=O` ; TGI = > 100 µM

Entry `COC(=O)C(CCC1(C)OCCO1)=[N+]=[N-]` ; TGI = > 100 µM

Entry `COC(=O)c1c2c(cc3c1CC1(Cc4ccccc4C1)C3)CCC2` ; TGI = > 100 µM

Entry `CC12O[C@H](C[C@@H](OC(=O)CCC(=O)O)[C@H]1O)n1c3ccccc3c3c4c(c5c6ccccc6n2c5c31)C(=O)NC4=O` ; TGI = 12.2 µM

Entry `CCNC(=S)NNC(=O)c1ccccc1Nc1ccccc1C(=O)NNC(=S)NCC` ; TGI = > 100 µM

Entry Cc1ccc(S(=O)(=O)C2CC2(Cl)Cl)cc1 (stereo unspecified) ; TGI = > 100 µM

Entry `C/C(=N\NC(N)=S)c1nc2ncccc2[nH]1` ; TGI = > 100 µM

###

# System: MDA-MB-435
# assay protocol: NCI tumour cell line growth inhibition, 48 h
quantity measured: TGI

INSERT INTO measurements (compound, value_measured) VALUES
  ('CC(=O)NC(C)(C)C1CCC(C)CC1 (centres undefined)', '> 100 µM'),
  ('Cc1nc2ccc(NC3OCC(O)C(O)C3O)cc2c(=O)n1-c1ccccc1 (centres undefined)', '> 100 µM'),
  ('CSc1nc2c(c(=O)n1C)C(c1ccccc1)C1=C(N2)/C(=C/c2ccccc2)CCC1 (centres undefined)', '> 100 µM'),
  ('O=C(O)c1nn(-c2ccccc2)nc1-c1nn(-c2ccccc2)nc1C(=O)O', '> 100 µM'),
  ('CCOS(=O)(=O)c1ccc(-c2c3nc(c(-c4ccc(S(=O)(=O)OCC)cc4)c4ccc([nH]4)c(-c4ccc(S(=O)(=O)OCC)cc4)c4nc(c(-c5ccc(S(=O)(=O)OCC)cc5)c5ccc2[nH]5)C=C4)C=C3)cc1', '> 31.6 µM');

Entry `CCCN(CCC)C(=O)c1c(N2CCN(C)CC2)c2cccnc2n2c(C)cnc12` ; TGI = > 100 µM

Entry CC[C@]12C=CCN3CC[C@@]4(c5cc(Br)c(OC)cc5N(C)[C@H]4[C@@](O)(C(=O)NC(Cc4c[nH]c5ccccc45)C(=O)OC)[C@@H]1O)[C@@H]32 (some centres undefined) ; TGI = > 100 µM

Entry O=C1CC(c2ccccc2)n2c(nc3ccccc32)N1 (centres undefined) ; TGI = > 100 µM

Entry `Cc1[nH]c2nccn2c(=O)c1CCO` ; TGI = > 10 µM

Recorded values, source PubChem BioAssay (NCI).
